# Test system: H2A.X
# Measurement description: In vivo GBM rat model: double immunofluorescence examination
# Recorded conditions: neurons, brain tissues, GBM rats, 30 mg/kg oral, 5 days
Endpoint label: expressions of H2AX

CC(C)CCOc1ccc2c(c1)CCC(=O)N2
mild
O=C1CCc2cc(OS(=O)(=O)c3cccc4ccccc34)ccc2N1
moderate
C=CCOC(=O)COc1ccc2c(c1)CCC(=O)N2
moderate
COc1cc(NC(=O)COc2ccc3c(c2)CCC(=O)N3)cc(OC)c1
moderate

###

# Measurement description: In vivo GBM rat model: haematology
# Recorded conditions: GBM rats, 30 mg/kg oral, 5 days, blood at necropsy
Endpoint label: WBC

Cn1nnc2c(C(N)=O)ncn2c1=O [TMZ, Temozolomide, reference compound]
4.92 10^9/L
C=CCOC(=O)COc1ccc2c(c1)CCC(=O)N2
3.82 10^9/L
CC(C)CCOc1ccc2c(c1)CCC(=O)N2
3.65 10^9/L
COc1cc(NC(=O)COc2ccc3c(c2)CCC(=O)N3)cc(OC)c1
6.56 10^9/L

Look up WBC for the entries below, preserving their order.
1. C=Cc1ccc(COc2ccc3c(c2)CCC(=O)N3)cc1
2. O=C1CCc2cc(OS(=O)(=O)c3cccc4ccccc34)ccc2N1
3. O=C(COc1ccc2c(c1)CCC(=O)N2)N/N=C/c1cnc(-c2ccc(Cl)cc2)nc1

A)
["3.40 10^9/L", "4.32 10^9/L", "4.57 10^9/L"]
